tested on: Vero E6 infected with SARS-CoV-2; assay: inhibition of SARS-CoV-2 cytopathic effect; higher = more antiviral protection, active = above 15; conditions: 100 nM; 48 h
Can you tell me inhibition of SARS-CoV-2 cytopathic effect for the items I'm about to list?
Answers are plain numbers, in %.

Worked set:
compound	system_name	display_unit	measured_value
CC1(C)OC(=O)NC1=O	Vero E6 infected with SARS-CoV-2	%	0.11
CC(C)=CCC/C(C)=C/CC/C(C)=C/CC[C@]1(C)CCc2cc(O)cc(C)c2O1	Vero E6 infected with SARS-CoV-2	%	2.83
O=c1sn(-c2cccc3ccccc23)c(=O)n1Cc1ccccc1	Vero E6 infected with SARS-CoV-2	%	-1.32
N#CN1CCCC1	Vero E6 infected with SARS-CoV-2	%	-2
O=C(O)c1cc(=O)c2ccccc2[nH]1	Vero E6 infected with SARS-CoV-2	%	2.79
NS(=O)(=O)c1nn2cc(-c3ccccc3)nc2s1	Vero E6 infected with SARS-CoV-2	%	0.85
O=C(OC[C@H]1O[C@@H](OC(=O)c2cc(O)c(O)c(OC(=O)c3cc(O)c(O)c(O)c3)c2)[C@H](OC(=O)c2cc(O)c(O)c(OC(=O)c3cc(O)c(O)c(O)c3)c2)[C@@H](OC(=O)c2cc(O)c(O)c(OC(=O)c3cc(O)c(O)c(O)c3)c2)[C@@H]1OC(=O)c1cc(O)c(O)c(OC(=O)c2cc(O)c(O)c(O)c2)c1)c1cc(O)c(O)c(OC(=O)c2cc(O)c(O)c(O)c2)c1	Vero E6 infected with SARS-CoV-2	%	-0.77
COc1cc2nccc(Oc3ccc(NC(=O)Nc4ccc(F)cc4F)c(F)c3)c2cc1OC	Vero E6 infected with SARS-CoV-2	%	4.46

For every item in the list below, what is its measured inhibition of SARS-CoV-2 cytopathic effect?
1. CCCCCCNC(=O)n1cc(F)c(=O)[nH]c1=O [carmofur]
2. CC(C)(C)CC(=O)Nc1c(F)cc(C(=O)/N=c2\sccn2COP(=O)(O)O)cc1F
3. NS(=O)(=O)c1cc(C(=O)O)cc(N2CCCC2)c1Oc1ccccc1 [piretanide]

2.63
-3.11
2.39

----------
tested on: Vero E6 infected with SARS-CoV-2; experiment: inhibition of SARS-CoV-2 cytopathic effect; higher = more antiviral protection, active = above 15; conditions: 100 nM; 48 h
Give measured inhibition of SARS-CoV-2 cytopathic effect for each item. Keep answers brief.
Numbers only, in %.

compound	display_unit	measured_value
CCCCN1CCC(CCC(=O)c2cc(Cl)c(N)cc2OC)CC1	%	-0.31
CCCCOc1c(C(=O)c2c(F)cc(C)cc2F)c[nH]c2nncc1-2	%	0.08
Oc1cc(CNC(=S)/C=C/c2cc(O)c(O)c(Br)c2)cc(O)c1O	%	2.87
CCCCNC(=O)NS(=O)(=O)c1ccc(C)cc1 [tolbutamide]	%	-0.09
COC(=O)[C@]12CCC(C)(C)C[C@H]1[C@H]1C(=O)C=C3[C@@]4(C)C=C(C#N)C(=O)C(C)(C)[C@@H]4CC[C@@]3(C)[C@]1(C)CC2	%	-1.03

Report inhibition of SARS-CoV-2 cytopathic effect for every entry below.
1. COc1cccc2c1C(=O)c1c(O)c3c(c(O)c1C2=O)C[C@@](O)(C(=O)CO)C[C@@H]3O[C@H]1C[C@H](N)[C@H](O[C@@H]2CCCCO2)[C@H](C)O1
2. CCCCc1cc2ccccc2c(OCCN(C)C)n1
3. O.O=[Si]=O.O=[Si]=O.O=[Si]=O.O=[Si]=O.[O]=[Mg].[O]=[Mg].[O]=[Mg]
4. S=C(S)N1CCCC1 [pyrrolidine-dithiocarbamate]

1: -0.19; 2: -0.28; 3: -1.66; 4: 4.28

For each listed entry, give its inhibition of SARS-CoV-2 cytopathic effect.
1. Cc1ccccc1C(=O)Nc1ccc(C(=O)N2CCCC(O)c3cc(Cl)ccc32)c(C)c1 (stereo not drawn)
2. Clc1cccc(-n2nnnc2NCc2ccccc2Oc2ccccn2)c1Cl
3. CCCN(C/C=C/I)[C@H]1CCc2ccc(O)cc2C1 [7-hydroxy-PIPAT]

[0.74, -3.85, -1.03]

Write down measured inhibition of SARS-CoV-2 cytopathic effect (Vero E6 infected with SARS-CoV-2) for this compound. C=CCN1CC[C@]23c4c5ccc(O)c4O[C@H]2/C(=N/NC(=O)c2ccccc2)CC[C@@]3(O)[C@H]1C5 [naloxone-benzoylhydrazone]
0.75

----------
system: Vero E6 infected with SARS-CoV-2; assay: morphology score (similarity to uninfected cells); higher = more like uninfected cells; conditions: 24 h
experimental_readout: morphology score
One number for each entry.

Hello, I would appreciate it if you could give morphology score for each entry below.
1. O=c1c2ccccc2oc2ccccc12 [xanthone] (10 µM)
2. CCc1cc(/C(C)=N/OCc2ccc(C3CCCCC3)c(C(F)(F)F)c2)ccc1CN1CC(C(=O)O)C1 [siponimod] (10 µM)
3. O=[N+]([O-])c1ccc(O)c([N+](=O)[O-])c1 [2,4-dinitrophenol] (10 µM)
4. COc1ccc(S(=O)(=O)Nc2nc(-c3cccc([N+](=O)[O-])c3)cs2)cc1OC (10 µM)

1: 0.219; 2: 0.0973; 3: 0.0596; 4: -0.00369

----------
Please provide measured inhibition of SARS-CoV-2 cytopathic effect for the entries that follow.
tested on: Vero E6 infected with SARS-CoV-2; experiment: inhibition of SARS-CoV-2 cytopathic effect; higher = more antiviral protection, active = above 15; details: 833.33 nM; 48 h
Numbers only, in %.

Some solved cases for reference:
compound	display_unit	measured_value
O=C(O)COc1cccc(CN(Cc2ccc(-n3cccn3)cc2)S(=O)(=O)c2cccnc2)c1	%	-0.14
N=C(N)NC(=N)NCCc1ccccc1	%	-2.58
O=C(CN1CCN(C(=O)c2ccco2)CC1)Nc1cc(C(F)(F)F)ccc1Cl	%	1.03
O=c1[nH]c2ccccc2n1C1CCN(CCCC(c2ccc(F)cc2)c2ccc(F)cc2)CC1 [pimozide]	%	-0.58
NNc1nncc2ccccc12 [hydralazine]	%	-0.12
Clc1ccc(Cn2c(CN3CCCC3)nc3ccccc32)cc1	%	-3.06
CCCc1cc(C)[nH]c(=O)c1CNC(=O)c1cc(-c2ccc(N3CCN(C(C)C)CC3)nc2)cc2c1cnn2C(C)C	%	-0.64
CC(C)Nc1nc2cc(Cl)c(Cl)cc2n1[C@H]1O[C@@H](CO)[C@H](O)[C@@H]1O	%	-0.76
CCCCNc1ncc2c(-c3ccc(CN4CCN(C)CC4)cc3)cn([C@H]3CC[C@H](O)CC3)c2n1	%	-9.69
O=C(O)CC/C=C\C[C@@H]1CO[C@H](c2ccccc2Cl)O[C@@H]1c1ccccc1O (racemic)	%	0.59

In one line, give reported inhibition of SARS-CoV-2 cytopathic effect of the entry `CN(CCc1ccc(Cl)c(Cl)c1)CCN1CCCC1` .
3.84

----------
tested on: Vero E6 infected with SARS-CoV-2; assay: inhibition of SARS-CoV-2 cytopathic effect; higher = more antiviral protection, active = above 15; conditions: 8.33 nM; 48 h
experimental_readout: inhibition of SARS-CoV-2 cytopathic effect (%)
Numbers only, in %.

Look over these answered cases.
molecule	measured_value
CN(C)CC/C=C1\c2ccccc2CSc2ccccc21 [dosulepin]	1.37
CCOc1cncc(/C=C/CCNC)c1	-1.63

Dear colleague, could you please provide inhibition of SARS-CoV-2 cytopathic effect for the molecules listed below?
1. CN[C@H](C(=O)N[C@H](C(=O)N(C)[C@H](/C=C(\C)C(=O)O)C(C)C)C(C)(C)C)C(C)(C)c1ccccc1
2. CC(C)(C)NC[C@H](O)COc1cccc2c1CCCC2=O
3. O=c1c(O)c(-c2ccc(O)c(O)c2)oc2cc(O)ccc12

1. -1.55
2. -1.55
3. -1.12

Each molecule below has a recorded value; state its inhibition of SARS-CoV-2 cytopathic effect.
1. C[C@@H]1CC[C@@]2(OC1)O[C@H]1C[C@H]3[C@@H]4CC=C5C[C@@H](O)CC[C@]5(C)[C@H]4CC[C@]3(C)[C@H]1[C@@H]2C
2. CN(C)CCOc1cc(-c2cn[nH]c2)ccc1NC(=O)C1COc2ccccc2O1 (configuration not stated)

-0.09
1.35

----------
test system: Vero E6 infected with SARS-CoV-2; assay: inhibition of SARS-CoV-2 cytopathic effect; higher = more antiviral protection, active = above 15; conditions: 8.33 nM; 48 h
Valid outcomes are listed here; reply with one: active, inactive

Below, 4 compounds whose answers are already recorded.
compound	class_assignment
Cc1nc2ccc(NC(=O)Nc3ccnc4cccnc34)cc2o1	inactive
C=C1/C(=C\C=C2/CCC[C@]3(C)[C@@H]([C@H](C)CCCC(O)(C(F)(F)F)C(F)(F)F)CC[C@@H]23)C[C@@H](O)C[C@@H]1O	inactive
CNC(=N)NCCC[C@H](N)C(=O)O	inactive
Oc1ccc(C2(c3ccccc3F)CCC(F)(F)CC2)cc1	inactive

How did this test come out for `COc1ccc(CN(C(=O)[C@@H](N)Cc2c(C)cc(C(N)=O)cc2C)[C@@H](C)c2ncc(-c3ccccc3)[nH]2)cc1C(=O)O` ?
inactive

How did this test come out for `N#Cc1ncccn1` ?
inactive

// return assay outcome for `CC(=O)O[C@H]1C(=O)[C@@]2(C)[C@H]([C@H](OC(=O)c3ccccc3)[C@]3(O)C[C@H](OC(=O)[C@H](O)[C@@H](NC(=O)c4ccccc4)c4ccccc4)C(C)=C1C3(C)C)[C@]1(OC(C)=O)CO[C@@H]1C[C@@H]2O`
inactive

Test call, this compound: COc1cc(N)c(Cl)cc1C(=O)NC1CCN(Cc2ccccc2)CC1 [clebopride]
inactive

Fill in: this test's call for `c1cnc(N2CCN(Cc3ccc4c(c3)OCO4)CC2)nc1` is ___
active

Short answer needed: outcome of this test for `COC(=O)Nc1nc2cc(SC(C)C)ccc2[nH]1` ?
inactive
